- Target or system: AMP-activated protein kinase, AMPK (Homo sapiens) (UniProt P54646+O43741+P54619+Q9UGJ0+Q9Y478+Q13131+Q9UGI9)
- Assay name: AMP-dependent Kinase enzyme assay. An in vitro enzyme assay that detects ADP turnover that is directly proportional to AMPK activity. This uses naive AMPK that is activated during the assay with MK-8722
- Assay type: functional
- Design: scale not given: direction of the effect not stated beside the values
- Test context: 30 µM
Some molecules, each annotated with its measured Percent Effect.
Supply the numeric figure in %, leaving out any unit text.

Known results for molecules:
> print(dat)
                                   molecule  observed.measurement
1  Cc1cccc(N2CC[C@@H]3CN(C(=O)c4ccco4)CCO[C@@H]3C2)n1                  10.8
2   Cn1nc2c(cc1=O)CN(Cc1coc(-c3cccs3)n1)CC2                  -166
3  CC(C1CC1)N(C)C(=O)c1cnc(-c2ccc3c(c2)OCO3)s1 (stereo unspecified)                  11.9

Q: Name the recorded Percent Effect for Cc1nc(C2CCCN2C(=O)CNS(C)(=O)=O)no1 (stereo unspecified) .
Ans: -7.92

Q: Then `CNC(=O)[C@H]1CCS(=O)(=O)[C@@H]2CN(Cc3ccc(OC)cc3)C[C@H]12` ?
Ans: 3.94

----------
- Target or system: Sialic acid-binding Ig-like lectin 9 (Homo sapiens)
- Assay name: Hs-Siglec9 ALPHAscreen SOP 20170721
- Design: scale not given: direction of the effect not stated beside the values
- Test context: 10 µM
Examples of compounds with documented Percent Effect follow.
Returns: string containing the numeric result and its unit.

> print(dat)
                                   compound  observed.measurement
1  CCC(O)CNC(=O)C1(N(C)Cc2ccccc2)Cc2ccccc2C1 (stereo unspecified)                -1.75%

Q: What value of Percent Effect has been recorded for this entry: `Cc1nc(CN2CCN(C(=O)c3sccc3C3CC3)CC2)cs1`
Ans: 9.39%

Q: Entry to check: `Fc1ccc(CN2CC[C@H]3O[C@@H](COCC4CCOCC4)CC[C@H]32)cc1`
Ans: -6.01%

Q: Proceed to `Cc1ccc(OCC(=O)NCC(C)C)nc1`
Ans: 6.61%

Q: Repeat with `CCN(CCn1cccn1)Cc1nc(-c2cccs2)oc1C`
Ans: -4.42%

Q: Do the same for Cc1occc1C(=O)N1CCOCC2(CCN(Cc3nccs3)C2)C1 (stereo unspecified) please
Ans: 7.22%

----------
- Target or system: Chromo domain-containing protein 1 (Saccharomyces cerevisiae (strain ATCC 204508 / S288c) (Baker's yeast)) (UniProt P32657)
- Sequence (P32657 whole entry, the tested form may be a part): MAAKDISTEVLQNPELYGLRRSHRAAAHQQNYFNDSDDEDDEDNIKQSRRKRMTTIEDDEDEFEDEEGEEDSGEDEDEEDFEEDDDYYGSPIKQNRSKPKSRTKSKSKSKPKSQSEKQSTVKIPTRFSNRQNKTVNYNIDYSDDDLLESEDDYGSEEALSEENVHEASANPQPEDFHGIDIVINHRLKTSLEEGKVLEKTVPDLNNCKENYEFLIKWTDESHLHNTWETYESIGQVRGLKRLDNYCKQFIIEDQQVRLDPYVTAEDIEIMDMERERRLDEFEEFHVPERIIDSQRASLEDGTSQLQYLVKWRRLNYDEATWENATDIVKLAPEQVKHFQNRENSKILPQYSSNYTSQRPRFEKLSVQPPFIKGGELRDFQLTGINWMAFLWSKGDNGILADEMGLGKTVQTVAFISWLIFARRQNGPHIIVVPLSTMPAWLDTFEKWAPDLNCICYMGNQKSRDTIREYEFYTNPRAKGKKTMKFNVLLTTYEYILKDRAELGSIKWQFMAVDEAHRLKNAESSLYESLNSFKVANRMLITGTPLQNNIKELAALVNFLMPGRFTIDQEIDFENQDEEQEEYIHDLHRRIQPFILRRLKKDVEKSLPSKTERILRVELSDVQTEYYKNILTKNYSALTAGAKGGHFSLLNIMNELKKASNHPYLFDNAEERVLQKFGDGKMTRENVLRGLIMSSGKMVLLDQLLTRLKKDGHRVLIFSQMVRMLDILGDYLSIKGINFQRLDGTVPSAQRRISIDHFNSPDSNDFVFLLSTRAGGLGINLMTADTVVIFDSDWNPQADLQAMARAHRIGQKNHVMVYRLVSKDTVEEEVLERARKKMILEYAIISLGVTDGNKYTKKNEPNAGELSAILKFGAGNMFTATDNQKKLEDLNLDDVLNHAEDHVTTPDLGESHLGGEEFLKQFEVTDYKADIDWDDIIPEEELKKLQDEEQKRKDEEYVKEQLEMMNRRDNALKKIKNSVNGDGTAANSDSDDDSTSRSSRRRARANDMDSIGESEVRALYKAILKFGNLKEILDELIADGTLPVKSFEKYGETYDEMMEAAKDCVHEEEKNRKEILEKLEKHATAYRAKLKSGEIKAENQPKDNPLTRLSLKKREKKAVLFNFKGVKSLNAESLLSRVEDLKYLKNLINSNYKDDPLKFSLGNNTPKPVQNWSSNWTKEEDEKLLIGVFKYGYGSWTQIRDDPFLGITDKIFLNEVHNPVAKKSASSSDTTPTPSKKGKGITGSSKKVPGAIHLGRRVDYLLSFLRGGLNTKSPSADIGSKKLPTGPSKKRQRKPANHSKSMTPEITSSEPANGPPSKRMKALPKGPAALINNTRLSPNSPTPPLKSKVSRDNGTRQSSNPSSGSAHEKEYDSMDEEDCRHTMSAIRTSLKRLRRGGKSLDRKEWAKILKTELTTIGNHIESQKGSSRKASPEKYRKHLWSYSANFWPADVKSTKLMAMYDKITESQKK
- Assay name: ScCHD-1 Enzyme Inhibition Assay; further: in the data most compounds retested in dose-response had high values
- Format: functional
- Set-up: scale not given: direction of the effect not stated beside the values
- Test context: 30 µM
Let's look at some molecules and their measured Percent Effect.
Numeric answer only, unit % assumed.

Some entries whose results are on file:
> print(dat)
                                   molecule  observed.measurement
1  COC(=O)C(c1cc(F)ccc1F)N(C)C(=O)c1ccnc(C)n1 (centres undefined)                 -3.25
2        N#CC1(C(=O)Nc2ccc(OC(F)F)cc2)CCCC1                -0.635
3  CC(C)n1ccc(-c2cc(C(=O)N3CCCC3)c3ccccn23)n1                   -12

Q: Would you mind telling me what Percent Effect value was observed for `CC(C)c1nn(C)c(Cl)c1CNCc1ccc2c(c1)OCCO2` ?
Ans: 0.827

Q: Same question, `CN(Cc1ccc(N2CCCCC2)cc1)Cc1noc(C(C)(C)C)n1` this time
Ans: -1.32

Q: Try this molecule too: NC[C@H]1CC[C@H](C(NC(=O)c2cccc(F)c2)c2ccccn2)CC1 (some centres undefined)
Ans: -26.3

Q: Now try `CCN(CCn1cccn1)Cc1nc(-c2cccs2)oc1C` .
Ans: 0.676

Q: Now consider `CCCN1CCCn2nc(CNC(=O)CCc3scnc3C)cc2C1` and answer again.
Ans: -7.37
